FYI, the data here is from patent US10781212B2.

- ASSAY_DETAILS: Pharmacokinetics in OATP1A/1B knockout mice
- Format: in vivo
- CONDITIONS: OATP1A/1B knockout (Taconic #10707), mouse, IV 1 mg/kg, liver at 24 h, read-out: mean liver unbound partition coefficient (Kpuu)
QUANTITY_MEASURED: Kp uu at 24 h
Just the number.

Prompt line: For the compound `C[C@H]1CCN1c1nc(N2CC[C@H](CC(=O)O)C2)cc(C(F)(F)F)c1C#N` , what Kp uu at 24 h is on record?
Response line: 24.2

###

- ASSAY_DETAILS: Pharmacokinetics in FVB wild type mice
- Type: in vivo
- CONDITIONS: mouse, plasma, IV 1 mg/kg, read-out: volume of distribution
QUANTITY_MEASURED: Vd (L/kg)
Numeric only. Scale: L/kg

Prompt line: Need Vd, item `C[C@H]1CCN1c1nc(N2CC[C@H](CC(=O)O)C2)cc(C(F)(F)F)c1C#N`
Response line: 2.74

###

Consider compounds characterized by their pIC50 with UniProt P50053.
When answering, recall that pIC50 equals minus log10 of the concentration in mol/L, and write that number alone.

Prompt line: What value of measured pIC50 is listed for `C[C@H]1CCN1c1nc(N2CC[C@H](CC(=O)O)C2)cc(C(F)(F)F)c1C#N` ?
Response line: 7.72

Prompt line: Please do the same for `C[C@H]1CCN1c1nc(N2CC(CC(=O)O)C2)cc(C(F)(F)F)c1C#N` as well.
Response line: 7.43

###

- ASSAY_DETAILS: Pharmacokinetics in Beagle dogs
- Type: in vivo
- CONDITIONS: dog, plasma, PO 3 mg/kg
QUANTITY_MEASURED: bioavailability

Prompt line: # input molecule: `C[C@H]1CCN1c1nc(N2CC[C@H](CC(=O)O)C2)cc(C(F)(F)F)c1C#N` ; wanted: its bioavailability
Response line: ~93%

###

- ASSAY_TARGET: OATP1B1 (Homo sapiens (Human), UniProt Q9Y6L6)
- Sequence (Q9Y6L6 whole entry, species assumed): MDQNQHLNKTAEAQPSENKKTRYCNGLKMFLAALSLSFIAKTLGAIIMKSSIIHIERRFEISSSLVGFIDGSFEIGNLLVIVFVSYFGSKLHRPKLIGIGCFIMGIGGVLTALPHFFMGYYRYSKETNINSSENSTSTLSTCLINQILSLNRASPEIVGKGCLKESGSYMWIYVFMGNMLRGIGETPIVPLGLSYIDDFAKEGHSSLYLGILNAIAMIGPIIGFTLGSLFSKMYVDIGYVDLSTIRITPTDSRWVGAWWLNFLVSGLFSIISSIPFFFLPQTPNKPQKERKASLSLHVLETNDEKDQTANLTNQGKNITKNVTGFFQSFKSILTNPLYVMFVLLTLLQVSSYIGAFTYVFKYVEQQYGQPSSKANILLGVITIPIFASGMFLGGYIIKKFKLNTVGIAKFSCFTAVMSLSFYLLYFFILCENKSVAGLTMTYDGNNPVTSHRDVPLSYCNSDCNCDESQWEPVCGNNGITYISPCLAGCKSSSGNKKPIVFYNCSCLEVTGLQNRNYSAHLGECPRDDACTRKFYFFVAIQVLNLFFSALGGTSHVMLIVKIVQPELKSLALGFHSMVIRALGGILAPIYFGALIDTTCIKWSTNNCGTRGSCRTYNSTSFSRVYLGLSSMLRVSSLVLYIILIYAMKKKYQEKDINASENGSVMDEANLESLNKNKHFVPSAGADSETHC
- ASSAY_DETAILS: Inhibition of OATP1B1 (rosuvastatin uptake)
- CONDITIONS: rosuvastatin 400 nM substrate, 30 min pre-incubation
QUANTITY_MEASURED: IC50 (nM)
Quick note: give the figure in nM, leave out the unit.

Prompt line: Could you tell me which IC50 is on file for `C[C@H]1CCN1c1nc(N2CC[C@H](CC(=O)O)C2)cc(C(F)(F)F)c1C#N` ?
Response line: 120

###

- ASSAY_DETAILS: Pharmacokinetics in cynomolgus monkeys
- Assay type: in vivo
- CONDITIONS: cynomolgus monkey, plasma, PO 10 mg/kg
QUANTITY_MEASURED: half-life

Prompt line: Which half-life is listed for C[C@H]1CCN1c1nc(N2CC[C@H](CC(=O)O)C2)cc(C(F)(F)F)c1C#N [Example 1] ?
Response line: 15.3 h

###

- ASSAY_TARGET: OATP1B3 (Homo sapiens (Human), UniProt Q9NPD5)
- Sequence (Q9NPD5 whole entry, species assumed): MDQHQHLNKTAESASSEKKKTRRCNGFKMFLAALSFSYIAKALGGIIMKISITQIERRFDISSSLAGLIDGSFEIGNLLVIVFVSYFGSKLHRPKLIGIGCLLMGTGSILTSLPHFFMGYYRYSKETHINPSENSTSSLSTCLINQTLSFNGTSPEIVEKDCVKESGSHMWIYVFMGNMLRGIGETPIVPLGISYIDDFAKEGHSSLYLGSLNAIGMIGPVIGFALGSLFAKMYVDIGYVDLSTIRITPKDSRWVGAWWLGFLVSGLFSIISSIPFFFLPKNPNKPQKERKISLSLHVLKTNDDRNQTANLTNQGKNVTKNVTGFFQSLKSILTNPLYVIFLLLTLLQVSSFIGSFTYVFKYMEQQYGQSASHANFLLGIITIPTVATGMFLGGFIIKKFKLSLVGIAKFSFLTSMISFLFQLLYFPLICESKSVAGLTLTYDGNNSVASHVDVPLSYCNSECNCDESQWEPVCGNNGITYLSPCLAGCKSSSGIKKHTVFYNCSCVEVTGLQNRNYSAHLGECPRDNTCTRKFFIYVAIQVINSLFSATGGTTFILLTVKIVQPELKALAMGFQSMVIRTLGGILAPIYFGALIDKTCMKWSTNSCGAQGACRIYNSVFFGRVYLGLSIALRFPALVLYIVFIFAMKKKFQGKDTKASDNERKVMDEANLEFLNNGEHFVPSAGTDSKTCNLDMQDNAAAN
- ASSAY_DETAILS: Inhibition of OATP1B3 (rosuvastatin uptake)
- CONDITIONS: rosuvastatin 400 nM substrate, 30 min pre-incubation
QUANTITY_MEASURED: IC50 (µM)
Enter your answer as a number in µM; do not include the unit.

Prompt line: Name the recorded IC50 for C[C@H]1CCN1c1nc(N2CC[C@H](CC(=O)O)C2)cc(C(F)(F)F)c1C#N [Example 1] .
Response line: 5.5

###

- ASSAY_DETAILS: Elimination pathways in bile duct cannulated Beagle dogs
- Type: in vivo
- CONDITIONS: dog, plasma, IV 1 mg/kg
QUANTITY_MEASURED: half-life (h)
Give the value, in units of h, as a plain number.

Prompt line: For `C[C@H]1CCN1c1nc(N2CC[C@H](CC(=O)O)C2)cc(C(F)(F)F)c1C#N` , what is its reported half-life?
Response line: 2.9

###

- ASSAY_DETAILS: Elimination pathways in bile duct cannulated Beagle dogs
- Assay type: in vivo
- CONDITIONS: dog, plasma, IV 1 mg/kg, read-out: volume of distribution
QUANTITY_MEASURED: Vd (L/kg)
Output spec: scalar in L/kg, unitless text.

Prompt line: Please give the measured Vd for this molecule: `C[C@H]1CCN1c1nc(N2CC[C@H](CC(=O)O)C2)cc(C(F)(F)F)c1C#N`
Response line: 0.546

###

- ASSAY_DETAILS: Pharmacokinetics in OATP1A/1B knockout mice
- Type: in vivo
- CONDITIONS: OATP1A/1B knockout (Taconic #10707), mouse, plasma, IV 1 mg/kg
QUANTITY_MEASURED: half-life (h)
Hi! Could you send only the number? It should be in h, unit omitted.

Prompt line: Which value of half-life has been reported for `C[C@H]1CCN1c1nc(N2CC[C@H](CC(=O)O)C2)cc(C(F)(F)F)c1C#N` in the records?
Response line: 9.36

###

- ASSAY_TARGET: human KHK-C (Homo sapiens (Human), UniProt P50053)
- Sequence (P50053 whole entry): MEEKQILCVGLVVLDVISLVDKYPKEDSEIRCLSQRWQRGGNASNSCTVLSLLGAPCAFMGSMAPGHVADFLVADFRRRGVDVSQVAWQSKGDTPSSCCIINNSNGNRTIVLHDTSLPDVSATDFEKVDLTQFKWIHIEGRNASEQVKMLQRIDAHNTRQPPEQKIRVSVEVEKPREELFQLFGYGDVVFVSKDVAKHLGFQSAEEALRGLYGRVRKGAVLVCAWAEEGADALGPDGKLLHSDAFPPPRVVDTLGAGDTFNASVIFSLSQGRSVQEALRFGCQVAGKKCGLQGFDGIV
QUANTITY_MEASURED: IC50 (nM)
Report only the number, with the unit nM understood.

Prompt line: Item C[C@H]1CCN1c1nc(N2CC[C@H](CC(=O)O)C2)cc(C(F)(F)F)c1C#N [Example 1] has what recorded IC50?
Response line: 9

###

- ASSAY_DETAILS: Elimination pathways in bile duct cannulated Beagle dogs
- Assay type: in vivo
- CONDITIONS: dog, plasma, 1 mg/kg, heading: mean clearance, IV 1 mg/kg
QUANTITY_MEASURED: clearance (mL/min/kg)
// note: answer is a bare numeric in mL/min/kg

Prompt line: Can you share its clearance? I mean this compound: `C[C@H]1CCN1c1nc(N2CC[C@H](CC(=O)O)C2)cc(C(F)(F)F)c1C#N`
Response line: 4.69
